measurement_protocol: Octanol-phosphate buffer partition coefficient, log P of the compound after 5 hrs by shake-flask method
Format: physicochemical
logP at 5 h under 0.7 gets label 1, anything at or over 0.7 gets label 0.

Solved cases below.
>>> group_label("O=C(CN1CCN(c2cc3c(cc2F)c(=O)c(C(=O)O)cn3C2CC2)CC1)Nc1ccc(C(=O)/C=C/c2ccc(Cl)cc2)cc1")
"label 1"
>>> group_label("O=C(CN1CCN(c2cc3c(cc2F)c(=O)c(C(=O)O)cn3C2CC2)CC1)Nc1ccc(C(=O)/C=C/c2cccc([N+](=O)[O-])c2)cc1")
"label 1"
>>> group_label("Cc1ccc(/C=C/C(=O)c2ccc(NC(=O)CN3CCN(c4cc5c(cc4F)c(=O)c(C(=O)O)cn5C4CC4)CC3)cc2)c(C)c1")
"label 0"
>>> group_label("O=C(CN1CCN(c2cc3c(cc2F)c(=O)c(C(=O)O)cn3C2CC2)CC1)Nc1ccc(C(=O)/C=C/c2ccccc2)cc1")
"label 0"

[ask] Is 0.7 strictly greater than the compound's reported logP at 5 h? compound: `O=C(CN1CCN(c2cc3c(cc2F)c(=O)c(C(=O)O)cn3C2CC2)CC1)Nc1ccc(C(=O)/C=C/c2ccc3c(c2)OCO3)cc1`
[reply] label 1

---

Each entry below carries its recorded inhibition.
tested_target: DNA topoisomerase 1 (Homo sapiens) (UniProt P11387)
Sequence (P11387 whole entry): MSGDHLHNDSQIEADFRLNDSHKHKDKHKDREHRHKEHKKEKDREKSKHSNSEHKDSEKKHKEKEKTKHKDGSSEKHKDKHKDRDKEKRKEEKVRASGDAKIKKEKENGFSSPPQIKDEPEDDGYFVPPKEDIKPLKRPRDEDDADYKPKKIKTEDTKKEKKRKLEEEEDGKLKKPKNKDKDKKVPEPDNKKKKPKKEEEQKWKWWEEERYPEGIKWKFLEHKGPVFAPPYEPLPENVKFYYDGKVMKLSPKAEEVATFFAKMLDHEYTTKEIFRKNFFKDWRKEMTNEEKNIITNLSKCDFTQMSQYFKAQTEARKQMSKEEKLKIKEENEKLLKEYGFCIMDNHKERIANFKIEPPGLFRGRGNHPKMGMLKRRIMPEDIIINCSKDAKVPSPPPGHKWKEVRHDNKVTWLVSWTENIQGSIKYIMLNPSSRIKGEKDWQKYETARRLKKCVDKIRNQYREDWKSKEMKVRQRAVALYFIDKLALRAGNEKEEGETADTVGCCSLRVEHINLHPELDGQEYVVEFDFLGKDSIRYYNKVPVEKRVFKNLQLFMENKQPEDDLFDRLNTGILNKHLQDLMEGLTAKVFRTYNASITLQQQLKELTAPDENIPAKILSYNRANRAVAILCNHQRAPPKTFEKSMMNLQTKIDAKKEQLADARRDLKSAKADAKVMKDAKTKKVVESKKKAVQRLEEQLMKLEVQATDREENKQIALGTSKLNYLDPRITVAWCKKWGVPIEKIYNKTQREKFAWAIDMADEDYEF
measurement_protocol: Inhibition of human recombinant topoisomerase 1-mediated relaxation of supercoiled pBR322 DNA at 100 uM after 30 mins by agarose gel electrophoresis relative to control
# unit: % | format: bare number

>>> endpoint_value("O=C(CN1CCN(c2cc3c(cc2F)c(=O)c(C(=O)O)cn3C2CC2)CC1)Nc1ccc(C(=O)/C=C/c2ccccc2)cc1")
57.2
>>> endpoint_value("Cc1ccc(/C=C/C(=O)c2ccc(NC(=O)CN3CCN(c4cc5c(cc4F)c(=O)c(C(=O)O)cn5C4CC4)CC3)cc2)c(C)c1")
85.1

Here is another compound to look at.
[ask] Field request: inhibition | item: `O=C(CN1CCN(c2cc3c(cc2F)c(=O)c(C(=O)O)cn3C2CC2)CC1)Nc1ccc(C(=O)/C=C/c2cccc([N+](=O)[O-])c2)cc1`
[reply] 90.5

---

tested_target: DNA topoisomerase 2-alpha (Homo sapiens)
measurement_protocol: Inhibition of human topoisomerase 2alpha-mediated relaxation of supercoiled pBR322 DNA at 20 uM after 30 mins by agarose gel electrophoresis relative to control
Short version: inhibition at least 20% is true (1), less is false (0).

Solved cases below.
>>> group_label("O=C(CN1CCN(c2cc3c(cc2F)c(=O)c(C(=O)O)cn3C2CC2)CC1)Nc1ccc(C(=O)/C=C/c2ccc3c(c2)OCO3)cc1")
"true (1)"
>>> group_label("COc1ccc(/C=C/C(=O)c2ccc(NC(=O)CN3CCN(c4cc5c(cc4F)c(=O)c(C(=O)O)cn5C4CC4)CC3)cc2)cc1")
"true (1)"
>>> group_label("O=C(CN1CCN(c2cc3c(cc2F)c(=O)c(C(=O)O)cn3C2CC2)CC1)Nc1ccc(C(=O)/C=C/c2cccc(Cl)c2)cc1")
"true (1)"
>>> group_label("O=C(CN1CCN(c2cc3c(cc2F)c(=O)c(C(=O)O)cn3C2CC2)CC1)Nc1ccc(C(=O)/C=C/c2cccc([N+](=O)[O-])c2)cc1")
"false (0)"
>>> group_label("Cc1ccc(/C=C/C(=O)c2ccc(NC(=O)CN3CCN(c4cc5c(cc4F)c(=O)c(C(=O)O)cn5C4CC4)CC3)cc2)c(C)c1")
"true (1)"

Note: attention shifts to another entry.
[ask] Does the reported inhibition for `O=C(CN1CCN(c2cc3c(cc2F)c(=O)c(C(=O)O)cn3C2CC2)CC1)Nc1ccc(C(=O)/C=C/c2ccccc2Cl)cc1` fall at or above the 20% mark?
[reply] true (1)

---

tested_target: DNA topoisomerase 2-alpha (Homo sapiens)
measurement_protocol: Inhibition of human topoisomerase 2alpha-mediated relaxation of supercoiled pBR322 DNA at 100 uM after 30 mins by agarose gel electrophoresis relative to control
Short version: inhibition at least 70% is met, less is not met.

>>> group_label("COc1ccc(/C=C/C(=O)c2ccc(NC(=O)CN3CCN(c4cc5c(cc4F)c(=O)c(C(=O)O)cn5C4CC4)CC3)cc2)cc1OC")
"not met"

[ask] Does the reported inhibition for `O=C(CN1CCN(c2cc3c(cc2F)c(=O)c(C(=O)O)cn3C2CC2)CC1)Nc1ccc(C(=O)/C=C/c2cccc(Cl)c2)cc1` fall at or above the 70% mark?
[reply] not met

[ask] Would you mind doing `COc1ccc(/C=C/C(=O)c2ccc(NC(=O)CN3CCN(c4cc5c(cc4F)c(=O)c(C(=O)O)cn5C4CC4)CC3)cc2)cc1` as well?
[reply] met

[ask] Would you mind doing `Cc1ccc(/C=C/C(=O)c2ccc(NC(=O)CN3CCN(c4cc5c(cc4F)c(=O)c(C(=O)O)cn5C4CC4)CC3)cc2)c(C)c1` as well?
[reply] met

---

tested_target: DNA topoisomerase 1 (Homo sapiens) (UniProt P11387)
measurement_protocol: Inhibition of human recombinant topoisomerase 1-mediated relaxation of supercoiled pBR322 DNA at 100 uM after 30 mins by agarose gel electrophoresis relative to control
Short version: inhibition at least 70% is Criterion met, less is Criterion not met.

Solved cases below.
>>> group_label("O=C(CN1CCN(c2cc3c(cc2F)c(=O)c(C(=O)O)cn3C2CC2)CC1)Nc1ccc(C(=O)/C=C/c2ccc(Cl)cc2)cc1")
"Criterion not met"
>>> group_label("COc1ccc(/C=C/C(=O)c2ccc(NC(=O)CN3CCN(c4cc5c(cc4F)c(=O)c(C(=O)O)cn5C4CC4)CC3)cc2)cc1")
"Criterion not met"
>>> group_label("O=C(CN1CCN(c2cc3c(cc2F)c(=O)c(C(=O)O)cn3C2CC2)CC1)Nc1ccc(C(=O)/C=C/c2ccc3c(c2)OCO3)cc1")
"Criterion met"
>>> group_label("COc1cc(/C=C/C(=O)c2ccc(NC(=O)CN3CCN(c4cc5c(cc4F)c(=O)c(C(=O)O)cn5C4CC4)CC3)cc2)cc(OC)c1OC")
"Criterion not met"

Note: attention shifts to another entry.
[ask] Does the reported inhibition for `COc1ccc(/C=C/C(=O)c2ccc(NC(=O)CN3CCN(c4cc5c(cc4F)c(=O)c(C(=O)O)cn5C4CC4)CC3)cc2)cc1OC` fall at or above the 70% mark?
[reply] Criterion met

---

tested_target: DNA topoisomerase 1 (Homo sapiens)
measurement_protocol: Inhibition of human recombinant topoisomerase 1-mediated relaxation of supercoiled pBR322 DNA at 20 uM after 30 mins by agarose gel electrophoresis relative to control
Each entry below carries its recorded inhibition.
# unit: % | format: bare number

Completed entries (count: 6):
>>> endpoint_value("COc1ccc(/C=C/C(=O)c2ccc(NC(=O)CN3CCN(c4cc5c(cc4F)c(=O)c(C(=O)O)cn5C4CC4)CC3)cc2)cc1")
25.3
>>> endpoint_value("COc1cc(/C=C/C(=O)c2ccc(NC(=O)CN3CCN(c4cc5c(cc4F)c(=O)c(C(=O)O)cn5C4CC4)CC3)cc2)cc(OC)c1OC")
11.5
>>> endpoint_value("O=C(CN1CCN(c2cc3c(cc2F)c(=O)c(C(=O)O)cn3C2CC2)CC1)Nc1ccc(C(=O)/C=C/c2ccccc2Cl)cc1")
4.2
>>> endpoint_value("O=C(CN1CCN(c2cc3c(cc2F)c(=O)c(C(=O)O)cn3C2CC2)CC1)Nc1ccc(C(=O)/C=C/c2ccc3c(c2)OCO3)cc1")
25.9
>>> endpoint_value("O=C(CN1CCN(c2cc3c(cc2F)c(=O)c(C(=O)O)cn3C2CC2)CC1)Nc1ccc(C(=O)/C=C/c2ccccc2)cc1")
6.4
>>> endpoint_value("COc1ccc(/C=C/C(=O)c2ccc(NC(=O)CN3CCN(c4cc5c(cc4F)c(=O)c(C(=O)O)cn5C4CC4)CC3)cc2)cc1OC")
2.5

[ask] Field request: inhibition | item: `O=C(CN1CCN(c2cc3c(cc2F)c(=O)c(C(=O)O)cn3C2CC2)CC1)Nc1ccc(C(=O)/C=C/c2ccc(Cl)cc2)cc1`
[reply] 0.4

---

Each entry below carries its recorded solubility.
measurement_protocol: Aqueous solubility of the compound at pH 7.8 by UV spectroscopic analysis
Assay type: physicochemical
condition: aqueous solution
# unit: µg/mL | format: bare number

Completed entries (count: 4):
>>> endpoint_value("O=C(CN1CCN(c2cc3c(cc2F)c(=O)c(C(=O)O)cn3C2CC2)CC1)Nc1ccc(C(=O)/C=C/c2ccccc2)cc1")
2.53
>>> endpoint_value("COc1ccc(/C=C/C(=O)c2ccc(NC(=O)CN3CCN(c4cc5c(cc4F)c(=O)c(C(=O)O)cn5C4CC4)CC3)cc2)cc1OC")
0.68
>>> endpoint_value("O=C(CN1CCN(c2cc3c(cc2F)c(=O)c(C(=O)O)cn3C2CC2)CC1)Nc1ccc(C(=O)/C=C/c2cccc([N+](=O)[O-])c2)cc1")
27.4
>>> endpoint_value("O=C(CN1CCN(c2cc3c(cc2F)c(=O)c(C(=O)O)cn3C2CC2)CC1)Nc1ccc(C(=O)/C=C/c2cccc(Cl)c2)cc1")
29.7

[ask] Field request: solubility | item: `O=C(CN1CCN(c2cc3c(cc2F)c(=O)c(C(=O)O)cn3C2CC2)CC1)Nc1ccc(C(=O)/C=C/c2ccc(Cl)cc2)cc1`
[reply] 2.23

[ask] Would you mind doing `Cc1ccc(/C=C/C(=O)c2ccc(NC(=O)CN3CCN(c4cc5c(cc4F)c(=O)c(C(=O)O)cn5C4CC4)CC3)cc2)c(C)c1` as well?
[reply] 2.07

[ask] Would you mind doing `COc1ccc(/C=C/C(=O)c2ccc(NC(=O)CN3CCN(c4cc5c(cc4F)c(=O)c(C(=O)O)cn5C4CC4)CC3)cc2)cc1` as well?
[reply] 2.42
